We begin with a simple list: items and their reported inhibition at 50 µg/mL.
System: Mycobacterium tuberculosis variant bovis
Assay: Inhibition of growth of Mycobacterium bovis was determined using microplate alamar blue assay at 50 ug/mL concentration with compound dissolved in DMSO
Type: functional
Dear colleague, please send the value followed by its unit.

Some molecules with known inhibition at 50 µg/mL results, for comparison:
Query: What value of inhibition at 50 µg/mL has been recorded for this entry: CCCCCCCCCCC#Cc1cn([C@H]2C[C@H](O)[C@@H](CO)O2)c(=O)[nH]c1=O
Reply: 90%

Query: Please answer likewise for CCCCCCCCCCC#Cc1cn([C@H]2C[C@H](O)[C@@H](CO)O2)c(=O)nc1N
Reply: 90%

Query: Also, CCCCCCCCCCCCC#Cc1cn([C@H]2C[C@H](O)[C@@H](CO)O2)c(=O)[nH]c1=O please.
Reply: 90%

Query: Now try CCCCCC#Cc1cn([C@H]2C[C@H](O)[C@@H](CO)O2)c(=O)[nH]c1=O .
Reply: 60%

Query: Do the same for CCCCCCCCC#Cc1cn([C@H]2C[C@H](O)[C@@H](CO)O2)c(=O)nc1N please
Reply: 90%

Attention now shifts to the item below.
Query: inhibition at 50 µg/mL for CCCCCCCCC#Cc1cn([C@H]2C[C@H](O)[C@@H](CO)O2)c(=O)[nH]c1=O ?
Reply: 50%
